Cited source for all entries: ChEMBL document CHEMBL3045936

System: Mus musculus
test-description: Neurotoxicity in ip dosed Mus musculus Swiss albino (mouse) assessed as minimal motor impairment after 4 hr by rotorod test
Type: toxicity, organism-based
recorded-conditions: in vivo

molecule: O=C1NC(=O)C(c2ccccc2)(c2ccccc2)N1
measure-unit: mg/kg
MTC: 100

molecule: CCCCNC(=S)N1CCC(CC2Cc3cc(OC)c(OC)cc3C2=O)CC1 (stereo not given)
measure-unit: mg/kg
MTC: 300

molecule: COc1cc2c(cc1OC)C(=O)C(CC1CCN(C(=S)Nc3ccccc3[N+](=O)[O-])CC1)C2 (stereo not given)
measure-unit: mg/kg
MTC: 300

molecule: COc1cc2c(cc1OC)C(=O)C(CC1CCN(C(=S)Nc3ccccc3C)CC1)C2 (stereo not given)
measure-unit: mg/kg
MTC: 300

molecule: COc1cc2c(cc1OC)C(=O)C(CC1CCN(C(=S)Nc3ccc(Cl)cc3)CC1)C2 (stereo not given)
measure-unit: mg/kg
MTC: 300
